- Tested system: nicotinic receptors (rat brain membranes)
- Measurement context: read-out: 3H-MCC Binding IC50
pIC50: −log10 of the molar value.
Readout: pIC50

> print(dat)
                                   compound  censoring.qualifier  result.number
1  CNC(=O)OC1CCN(Cc2ccccc2)CC1 [N--benzyl-4-piperdyl methylcarbamate]                    <           4.00
2  CN(C)CCOC(=S)Nc1ccccc1 [DMAE phenylthiocarbamate]                    =           4.70
3  CN(C)CCOC(=O)C1CCCCC1 [DMAE cyclohexylcarboxylate, dimethylaminoethyl cyclohexylcarboxylate]                    =           5.40
4  CN1CCCC(OC(=O)c2ccccc2)C1 (stereo not shown) [N--methyl-3-piperdyl benzoate]                    =           4.70

Reference source for all entries: patent US4835162A
